test system: S. aureus; experiment: MIC, broth micro-dilution (CLSI); type: cell-based, Staphylococcus aureus; conditions: Staphylococcus aureus, MRSA / USA300, USA 300 - MRSA (ST8); absence of FBS; read-out: MIC
recorded metric: MIC (mg/L)
Give bare numbers, in mg/L.

Previously resolved entries follow.
molecule: Cc1ccc(/C=N/Nc2cc(N/N=C/c3ccc(C)cc3)nc(N)n2)cc1
MIC / mg/L: 2
//
molecule: CCCCCCCCCC(=O)N[C@@H](Cc1c[nH]c2ccccc12)C(=O)N[C@H](CC(N)=O)C(=O)N[C@@H](CC(=O)O)C(=O)N[C@@H]1C(=O)NCC(=O)N[C@@H](CCCN)C(=O)N[C@@H](CC(=O)O)C(=O)N[C@H](C)C(=O)N[C@@H](CC(=O)O)C(=O)NCC(=O)N[C@H](CO)C(=O)N[C@@H]([C@H](C)CC(=O)O)C(=O)N[C@@H](CC(=O)c2ccccc2N)C(=O)O[C@@H]1C
MIC / mg/L: 0.5

# input for lookup
In: Would you kindly share the measured MIC for Cl.N=C(NN=Cc1ccc(Cl)cc1)NN=Cc1ccc(Cl)cc1 ?
Out: 2

###

test system: vancomycin-resistant enterococci (VRE); experiment: MIC, broth micro-dilution (CLSI); format: cell-based, enterococci (porcine isolates); conditions: Enterococcus, VRE, VRE 18 (69 W); absence of FBS
For each record, write down the corresponding MIC.
Numbers only, in µg/mL.

Previously resolved entries follow.
molecule: CCCCCCCCCC(=O)N[C@@H](Cc1c[nH]c2ccccc12)C(=O)N[C@H](CC(N)=O)C(=O)N[C@@H](CC(=O)O)C(=O)N[C@@H]1C(=O)NCC(=O)N[C@@H](CCCN)C(=O)N[C@@H](CC(=O)O)C(=O)N[C@H](C)C(=O)N[C@@H](CC(=O)O)C(=O)NCC(=O)N[C@H](CO)C(=O)N[C@@H]([C@H](C)CC(=O)O)C(=O)N[C@@H](CC(=O)c2ccccc2N)C(=O)O[C@@H]1C [Daptomycin, daptomycin]
MIC, µg/mL: 1
//
molecule: CC1(C)S[C@@H]2[C@H](NC(=O)[C@H](N)c3ccccc3)C(=O)N2[C@H]1C(=O)O [Ampicillin]
MIC, µg/mL: 1
//
molecule: Cc1ccc(/C=N/Nc2cc(N/N=C/c3ccc(C)cc3)nc(N)n2)cc1 [NCL195]
MIC, µg/mL: 2
//
molecule: Cl.N=C(NN=Cc1ccc(Cl)cc1)NN=Cc1ccc(Cl)cc1 [NCL812]
MIC, µg/mL: 2

In: Fill in the recorded MIC for this molecule, with vancomycin-resistant enterococci (VRE) as test system: C/C(=N\NC(=N)N/N=C(\C)c1ccc(C(C)(C)C)cc1)c1ccc(C(C)(C)C)cc1 [NCL219]
Out: 2

###

test system: vancomycin-resistant enterococci (VRE); assay: MIC, broth micro-dilution (CLSI); format: cell-based, enterococci (porcine isolates); details: S3 Table isolates; absence of FBS
recorded metric: MIC range

Previously resolved entries follow.
molecule: Cc1ccc(/C=N/Nc2cc(N/N=C/c3ccc(C)cc3)nc(N)n2)cc1
MIC range: 2 to 4 µg/mL
--
molecule: CCCCCCCCCC(=O)N[C@@H](Cc1c[nH]c2ccccc12)C(=O)N[C@H](CC(N)=O)C(=O)N[C@@H](CC(=O)O)C(=O)N[C@@H]1C(=O)NCC(=O)N[C@@H](CCCN)C(=O)N[C@@H](CC(=O)O)C(=O)N[C@H](C)C(=O)N[C@@H](CC(=O)O)C(=O)NCC(=O)N[C@H](CO)C(=O)N[C@@H]([C@H](C)CC(=O)O)C(=O)N[C@@H](CC(=O)c2ccccc2N)C(=O)O[C@@H]1C
MIC range: 0.5 to 2 µg/mL
--
molecule: CC1(C)S[C@@H]2[C@H](NC(=O)[C@H](N)c3ccccc3)C(=O)N2[C@H]1C(=O)O
MIC range: 0.25 to 2 µg/mL

For each listed entry, give its MIC range.
1. Cl.N=C(NN=Cc1ccc(Cl)cc1)NN=Cc1ccc(Cl)cc1
2. C/C(=N\NC(=N)N/N=C(\C)c1ccc(C(C)(C)C)cc1)c1ccc(C(C)(C)C)cc1

Out:
["2 to 4 µg/mL", "1 to 2 µg/mL"]
